B1: ZNF232 (parent)
chain: GKAYGWCSELIRHRRVHARKEPSH

Variants of: B1
protocol-details: protein stability index of a GFP-peptide fusion (GPS, HEK-293T) (PSI 1-6); higher = more stable;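 note: lentivirally expressed fusions sorted by FACS into six bins by GFP to DsRed ratio, PSI derived from sequencing read proportions per bin multiplied by bin number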
measurement-setup: c terminus: a fixed tail appended
readout-kind: protein stability index
Numbers only.

Before answering, review these 5 worked examples.
• S23M = 2.12
• G1V = 2.45
• A3C = 2.89
• C7F = 2.42
• A18D = 3.84

Your task in this section: give protein stability index for each listed record.
1. R19W
2. H17C
3. E9R
4. P22S
5. S23H
6. G1D
7. R12W

RESULT:
2.15
3.46
2.83
3.21
3.16
3.43
2.14

Your task in this section: give protein stability index for each listed record.
1. K2W
2. V16T
3. R19P
4. G1L

RESULT:
[1.85, 3.07, 2.37, 2.85]

Your task in this section: give protein stability index for each listed record.
1. E9Q
2. K20H

RESULT:
1: 2.64; 2: 2.97

Your task in this section: give protein stability index for each listed record.
1. V16F
2. L10Q
3. G1E

RESULT:
1: 2.87; 2: 2.78; 3: 3.39

Your task in this section: give protein stability index for each listed record.
1. R15T
2. K2F
3. H13M
4. H17L
5. R15I
6. S23R
7. G1H
8. C7I

RESULT:
1. 3.19
2. 2.62
3. 2.36
4. 2.99
5. 2.56
6. 2.93
7. 2.75
8. 2.17

Your task in this section: give protein stability index for each listed record.
1. K20N
2. V16M
3. E9T

RESULT:
1. 2.58
2. 3.43
3. 3.53

Your task in this section: give protein stability index for each listed record.
1. L10F
2. A18W
3. K20D
4. A18G
5. W6L
6. R19E
7. H13L
8. E21S

RESULT:
1. 2.6
2. 1.83
3. 3.45
4. 3
5. 2.95
6. 3.53
7. 1.97
8. 3.3

Your task in this section: give protein stability index for each listed record.
1. Y4D
2. A3F
3. A18I
4. R15Y
5. G1Q
6. W6S

RESULT:
[4.04, 2.73, 3.04, 2.38, 3.28, 3.65]

Just for reference, the supplement of paper PMC10567573 is where these values come from.
